# Measurement description: LTI-291-003 multiple dose study in GBA-PD: plasma and CSF pharmacokinetics
# Format: in vivo, human
# Condition details: human, plasma, oral, 30 mg, 30 mg daily, dose 28, GBA-PD, geometric mean
Measured metric: Cmax
Express the reported value numerically, then name its unit.

[in] Indicate the recorded Cmax value for this compound: CCCCCO[C@H]1CC[C@H](NC(=O)c2cnn3c(C)cc(C)nc23)CC1 [Compound A]
[out] 1440 ng/mL

###

# Measurement description: LTI-291-001 single ascending dose study: plasma pharmacokinetics and food effect
# Format: in vivo, human
# Condition details: human, plasma, po, 10 mg, 10 mg fasted, single oral dose, geometric mean
Measured metric: AUC(0-inf) (ng·h/mL)
A number alone suffices; assume ng·h/mL.

[in] Indicate the recorded AUC(0-inf) value for this compound: CCCCCO[C@H]1CC[C@H](NC(=O)c2cnn3c(C)cc(C)nc23)CC1 [Compound A]
[out] 7560
